Biological target: Carbonic anhydrase 13 (Homo sapiens) (UniProt Q8N1Q1)
Sequence (Q8N1Q1 whole entry, looked up): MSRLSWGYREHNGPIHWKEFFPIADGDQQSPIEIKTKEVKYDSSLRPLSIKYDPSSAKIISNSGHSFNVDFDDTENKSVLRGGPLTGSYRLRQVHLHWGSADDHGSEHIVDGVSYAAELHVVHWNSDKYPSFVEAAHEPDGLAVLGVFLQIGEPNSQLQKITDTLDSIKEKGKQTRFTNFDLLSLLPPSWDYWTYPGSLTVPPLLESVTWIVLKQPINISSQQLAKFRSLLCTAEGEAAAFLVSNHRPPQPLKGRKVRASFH
Assay: Binding affinity to human CA13 by phenol red dye based stopped flow CO2 hydration assay
Conditions: filed as activator
metric: Ka (µM)
All answers are understood in µM, so give the number only.

In: Provide only the value of recorded Ka for CC(N)Cc1ccccc1 (stereo not drawn)
Out: 24.1

In: Provide only the value of recorded Ka for Cc1ccccc1[Se]CC(C)N (stereo not drawn)
Out: 49.3

In: Provide only the value of recorded Ka for COc1ccc([Te]CC(C)N)cc1 (stereo not drawn)
Out: 38.2

In: Provide only the value of recorded Ka for COc1ccc([Se]CC(C)N)cc1 (stereo not drawn)
Out: 60.4

In: Provide only the value of recorded Ka for CC(N)C[Se]c1ccc(F)cc1 (stereo not drawn)
Out: 46.9

In: Provide only the value of recorded Ka for COc1cc([Te]CC(C)N)cc(OC)c1OC (stereo not drawn)
Out: 58.3

In: Provide only the value of recorded Ka for Cc1ccc([Te]CC(C)N)cc1 (stereo not drawn)
Out: 82.7

In: Provide only the value of recorded Ka for CC(N)CSc1ccc(Br)cc1 (stereo not drawn)
Out: 54.4

All values here come from ChEMBL document CHEMBL5247599.
